target: T1, human EphA4 (Homo sapiens, UniProt P54764); test: Selectivity ELISA of humanized antibodies for human Eph receptor; format: binding; conditions: coated protein 1 nM; reference set to 100%
T1 construct: made in house; not restated for the human SEAP-His protein
T1 sequence (P54764 20-547): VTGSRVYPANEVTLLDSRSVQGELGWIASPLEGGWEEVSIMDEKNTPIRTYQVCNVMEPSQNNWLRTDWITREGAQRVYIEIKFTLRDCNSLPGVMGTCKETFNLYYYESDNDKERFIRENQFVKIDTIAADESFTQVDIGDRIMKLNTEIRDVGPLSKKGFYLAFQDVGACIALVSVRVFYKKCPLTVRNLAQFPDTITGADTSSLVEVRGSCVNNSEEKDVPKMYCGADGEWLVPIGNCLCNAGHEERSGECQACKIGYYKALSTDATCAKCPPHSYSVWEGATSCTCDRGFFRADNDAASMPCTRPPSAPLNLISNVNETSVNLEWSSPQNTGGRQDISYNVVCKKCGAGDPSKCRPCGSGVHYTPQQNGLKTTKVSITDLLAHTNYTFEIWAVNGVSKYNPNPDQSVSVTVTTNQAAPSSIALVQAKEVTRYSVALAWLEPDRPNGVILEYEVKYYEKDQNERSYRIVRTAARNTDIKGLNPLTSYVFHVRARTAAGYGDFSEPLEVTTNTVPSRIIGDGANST
Measure: hEphA4-SEAP-: absorbance at 450 nm, percentage with respect to hEphA4-SEAP-His as 100% (%)
Numbers only, in %.

Please review the entries below; each comes with its answer.
Molecule	Recorded Value
134 (antibody, V domains shown, synthetic humanized antibody heavy chain variable region sequence; synthetic humanized antibody light chain variable region sequence) VH: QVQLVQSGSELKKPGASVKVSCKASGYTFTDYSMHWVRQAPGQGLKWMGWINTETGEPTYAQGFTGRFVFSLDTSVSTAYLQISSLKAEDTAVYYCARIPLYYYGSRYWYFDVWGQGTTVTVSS VL: EIVMTQSPATLSVSPGERATLSCRASENIYRNLAWYQQKPGQSPRLLIYAATNLADGIPARFSGSGSGTEYTLTISSLQSEDFAVYYCQHFWGTPWTFGQGTKVEIK	100
141 (antibody, V domains shown, synthetic humanized antibody heavy chain variable region sequence; synthetic humanized antibody light chain variable region sequence) VH: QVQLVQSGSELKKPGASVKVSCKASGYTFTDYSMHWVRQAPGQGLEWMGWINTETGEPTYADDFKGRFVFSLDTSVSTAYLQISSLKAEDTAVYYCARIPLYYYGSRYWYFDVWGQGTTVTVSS VL: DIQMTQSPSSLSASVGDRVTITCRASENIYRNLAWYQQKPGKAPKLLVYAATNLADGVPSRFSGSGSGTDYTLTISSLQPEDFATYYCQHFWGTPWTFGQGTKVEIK	100

Now for a further molecule.
Problem: Answer with the recorded hEphA4-SEAP-: absorbance at 450 nm, percentage with respect to hEphA4-SEAP-His as 100% for the molecule listed here: 83 (antibody, V domains shown, constant regions without entry; synthetic humanized antibody light chain variable region sequence; synthetic humanized antibody heavy chain variable region sequence) VL: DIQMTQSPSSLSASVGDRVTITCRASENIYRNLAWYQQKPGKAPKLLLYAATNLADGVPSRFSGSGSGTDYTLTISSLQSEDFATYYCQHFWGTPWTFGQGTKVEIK VH: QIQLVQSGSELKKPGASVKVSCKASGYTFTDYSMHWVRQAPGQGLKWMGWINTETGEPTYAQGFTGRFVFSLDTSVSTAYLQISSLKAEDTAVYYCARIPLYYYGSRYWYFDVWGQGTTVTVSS
Solution: 100

Provenance of the data: patent US10428140B2
